All figures here come from patent US20130096141A1.

biological target: GPR119 receptor (Homo sapiens); assay: cAMP assay in cells transfected with the GPR119 receptor (human); settings: increase in intracellular cAMP, read-out: h-cAMP EC50
pEC50: −log10 of the molar value.
Response key: yes (1) means pEC50 >= 9; no (0) means pEC50 < 9.

Quick check, pEC50 >= 9? CC1(OC(=O)N2CC3COCC(C2)C3Oc2ncnc3c(-c4ccc(C(=O)C5CC5)cc4Cl)csc23)CC1 (centres unmarked)
no (0)

Quick check, pEC50 >= 9? CC(C)(C)OC(=O)N1CC2COCC(C1)C2Oc1ncnc2c(-c3ccc(C#N)cc3F)csc12 (centres unmarked)
no (0)

Quick check, pEC50 >= 9? CC(C)(C)OC(=O)N1CC2COCC(C1)C2Oc1ncnc2c(-c3ccc(S(C)(=O)=O)cc3F)csc12 (centres unmarked)
no (0)

Quick check, pEC50 >= 9? COc1ccc(-c2csc3c(OC4C5COCC4CN(C(=O)OC4(C)CC4)C5)ncnc23)c(Cl)c1 (centres unmarked)
yes (1)

Quick check, pEC50 >= 9? CC(C)(C)OC(=O)N1CC2COCC(C1)C2Oc1ncnc2c(-c3ccc(C#N)cc3Cl)csc12 (centres unmarked)
no (0)

Quick check, pEC50 >= 9? CCCc1cnc(N2CC3COCC(C2)C3Oc2ncnc3c(-c4ccc(S(C)(=O)=O)cc4F)csc23)nc1 (centres unmarked)
no (0)

---

biological target: UniProtKB Q8TDV5; assay: cAMP assay in cells transfected with the GPR119 receptor (human); settings: increase in intracellular cAMP, read-out: h-cAMP EC50
For each record, write down the corresponding pEC50.
Lab note — pEC50 values are minus log10 of concentrations in M.

Memo: CC1(OC(=O)N2CC3COCC(C2)C3Oc2ncnc3c(-c4ccc(F)cc4F)csc23)CC1 (stereo not shown) , reported pEC50: 7.80

Memo: CC1(OC(=O)N2CC3COCC(C2)C3Oc2ncnc3c(-c4ccc(C#N)cc4Cl)csc23)CC1 (stereo not shown) , reported pEC50: 7.62

Memo: CC(C)(O)COc1ccc(-c2csc3c(OC4C5COCC4CN(C(=O)OC4(C)CC4)C5)ncnc23)c(F)c1 (stereo not shown) , reported pEC50: 9.30

Memo: CCS(=O)(=O)c1ccc(-c2csc3c(OC4C5COCC4CN(C(=O)OC4(C)CC4)C5)ncnc23)cc1 (stereo not shown) , reported pEC50: 9.42

---

For each record, write down the corresponding log10 EC50.
Target: GPR119 receptor (Homo sapiens)
Construct: expressed in transfected cells
Sequence (Q8TDV5 1-335): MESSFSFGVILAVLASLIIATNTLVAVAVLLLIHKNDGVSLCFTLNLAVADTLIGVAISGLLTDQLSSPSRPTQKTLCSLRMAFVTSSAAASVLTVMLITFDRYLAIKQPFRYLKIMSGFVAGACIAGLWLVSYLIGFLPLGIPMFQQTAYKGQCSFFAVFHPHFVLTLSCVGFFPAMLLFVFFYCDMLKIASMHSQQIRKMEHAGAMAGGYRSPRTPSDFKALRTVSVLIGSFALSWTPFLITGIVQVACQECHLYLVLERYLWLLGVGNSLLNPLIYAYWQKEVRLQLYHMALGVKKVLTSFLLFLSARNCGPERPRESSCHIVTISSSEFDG
Test: cAMP assay in cells transfected with the GPR119 receptor (human)
Assay type: cell-based
Details: increase in intracellular cAMP, read-out: h-cAMP EC50
Scale: decimal log of EC50, EC50 in nM.

Memo: Cn1cc(-c2ccc(S(C)(=O)=O)cc2F)c2ncnc(OC3C4COCC3CN(c3ncc(Cl)cn3)C4)c21 (stereo not drawn) , reported log10 EC50: 0.72

Memo: CC1(OC(=O)N2CC3COCC(C2)C3Oc2ncnc3c(-c4ccc(Cl)cc4F)csc23)CC1 (stereo not drawn) , reported log10 EC50: 0.30

Memo: Cc1ccc(-c2csc3c(OC4C5COCC4CN(C(=O)OC4(C)CC4)C5)ncnc23)c(F)c1 (stereo not drawn) , reported log10 EC50: -0.44

Memo: CC1(OC(=O)N2CC3COCC(C2)C3Oc2ncnc3c(-c4ccc(S(C)(=O)=O)cc4F)csc23)CC1 (stereo not drawn) , reported log10 EC50: -0.33

Memo: CC1(OC(=O)N2CC3COCC(C2)C3Oc2ncnc3c(-c4ncc(F)cc4F)csc23)CC1 (stereo not drawn) , reported log10 EC50: -0.29

Memo: COc1ccc(-c2csc3c(OC4C5COCC4CN(CC(F)(F)C(F)(F)F)C5)ncnc23)c(F)c1 (stereo not drawn) , reported log10 EC50: 1.65

Memo: CC1(OC(=O)N2CC3COCC(C2)C3Oc2ncnc3c(-c4ccc(OCCO)cc4F)csc23)CC1 (stereo not drawn) , reported log10 EC50: -0.19

Memo: COc1ccc(-c2csc3c(OC4C5COCC4CN(c4ncc(Cl)cn4)C5)ncnc23)c(F)c1 (stereo not drawn) , reported log10 EC50: 0.32

Memo: CC1(OC(=O)N2CC3COCC(C2)C3Oc2ncnc3c(-c4ccc(C#N)cc4F)csc23)CC1 (stereo not drawn) , reported log10 EC50: 0.95

Memo: CS(=O)(=O)c1ccc(-c2csc3c(OC4C5COCC4CN(c4ncc(F)cn4)C5)ncnc23)c(F)c1 (stereo not drawn) , reported log10 EC50: 1.67

Memo: CS(=O)(=O)c1ccc(-c2csc3c(OC4C5COCC4CN(CC(F)(F)C(F)(F)F)C5)ncnc23)c(F)c1 (stereo not drawn) , reported log10 EC50: 0.00

Memo: CS(=O)(=O)c1ccc(-c2c[nH]c3c(OC4C5COCC4CN(c4ncc(Cl)cn4)C5)ncnc23)c(F)c1 (stereo not drawn) , reported log10 EC50: 2.39

Memo: Fc1ccc(-c2csc3c(OC4C5COCC4CN(CC(F)(F)C(F)(F)F)C5)ncnc23)c(F)c1 (stereo not drawn) , reported log10 EC50: 1.86

Memo: N#Cc1ccc(-c2csc3c(OC4C5COCC4CN(CC(F)(F)C(F)(F)F)C5)ncnc23)c(Cl)c1 (stereo not drawn) , reported log10 EC50: 1.54

Memo: N#Cc1ccc(-c2csc3c(OC4C5COCC4CN(c4ncc(Cl)cn4)C5)ncnc23)c(Cl)c1 (stereo not drawn) , reported log10 EC50: 1.26

---

target: GPR119 receptor (Homo sapiens, UniProt Q8TDV5); assay: cAMP assay in cells transfected with the GPR119 receptor (human); settings: increase in intracellular cAMP, read-out: h-cAMP EC50
test_readout: log10 EC50 (log10 of the value in nM)
Scale: decimal log of EC50, EC50 in nM.

Memo: N#Cc1ccc(-c2csc3c(OC4C5COCC4CN(CC(F)(F)C(F)(F)F)C5)ncnc23)c(F)c1 (stereo not drawn) , reported log10 EC50: 0.20

Memo: Cn1cc(-c2ccc(F)cc2F)c2ncnc(OC3C4COCC3CN(C(=O)OC3(C)CC3)C4)c21 (stereo not drawn) , reported log10 EC50: 0.92

Memo: COCc1ccc(-c2csc3c(OC4C5COCC4CN(C(=O)OC4(C)CC4)C5)ncnc23)c(F)c1 (stereo not drawn) , reported log10 EC50: -0.13

Memo: CS(=O)(=O)c1ccc(-c2csc3c(OC4C5COCC4CN(c4ncc(Cl)cn4)C5)ncnc23)c(F)c1 (stereo not drawn) , reported log10 EC50: 1.36

Memo: COC(=O)c1ccc(-c2csc3c(OC4C5COCC4CN(C(=O)OC4(C)CC4)C5)ncnc23)c(F)c1 (stereo not drawn) , reported log10 EC50: -0.34

Memo: CC1(OC(=O)N2CC3COCC(C2)C3Oc2ncnc3c(-c4ccc(C#N)cc4F)c[nH]c23)CC1 (stereo not drawn) , reported log10 EC50: 2.47

Memo: Cc1c(F)ccc(-c2csc3c(OC4C5COCC4CN(C(=O)OC4(C)CC4)C5)ncnc23)c1F (stereo not drawn) , reported log10 EC50: 0.23

Memo: CC1(OC(=O)N2CC3COCC(C2)C3Oc2ncnc3c(-c4ccc(F)cc4Cl)csc23)CC1 (stereo not drawn) , reported log10 EC50: -1.00

Memo: Cn1cc(-c2ccc(S(C)(=O)=O)cc2F)c2ncnc(OC3C4COCC3CN(C(=O)OC3(C)CC3)C4)c21 (stereo not drawn) , reported log10 EC50: 0.00

Memo: COc1ccc(-c2csc3c(OC4C5COCC4CN(C(=O)OC4(C)CC4)C5)ncnc23)c(F)c1 (stereo not drawn) , reported log10 EC50: 0.04

Memo: COC(=O)COc1ccc(-c2csc3c(OC4C5COCC4CN(C(=O)OC4(C)CC4)C5)ncnc23)c(F)c1 (stereo not drawn) , reported log10 EC50: 0.40

Memo: COc1ccc(-c2cn(C)c3c(OC4C5COCC4CN(C(=O)OC4(C)CC4)C5)ncnc23)c(F)c1 (stereo not drawn) , reported log10 EC50: 0.76

Memo: CC1(OC(=O)N2CC3COCC(C2)C3Oc2ncnc3c(-c4ccc(S(C)(=O)=O)cc4)csc23)CC1 (stereo not drawn) , reported log10 EC50: 0.34

Memo: CC(C)(C)OC(=O)N1CC2COCC(C1)C2Oc1ncnc2c(-c3ccc(F)cc3F)csc12 (stereo not drawn) , reported log10 EC50: 1.26

Memo: CC1(OC(=O)N2CC3COCC(C2)C3Oc2ncnc3c(-c4ccc(F)cc4C#N)csc23)CC1 (stereo not drawn) , reported log10 EC50: 0.08
